System: field corn (Zea mays L., var. Dekalb 535, CORN)
Assay: Pre-emerge test, crop safety
Type: in vivo
Conditions: 63 g ai/ha; pre-emerge; rated 14 days after application; 0 = no damage, 100 = complete death
Property label: Pre-emerge crop damage CORN (phytotoxicity rating, scale 0-100)
Form field (numeric): enter value without unit.

Task: Report Pre-emerge crop damage CORN (phytotoxicity rating, scale 0-100) for C=Cc1ccc(C(=O)Nc2c(OC)c(Cl)cc(F)c2-n2c(=O)cc(C(F)(F)F)n(C)c2=O)cc1 please.
Result: 20

Task: Entry COc1c(Cl)cc(F)c(-n2c(=O)cc(C(F)(F)F)n(C)c2=O)c1NC(=O)C=C(C)C please
Result: 10

Task: Entry CCn1c(C(F)(F)F)cc(=O)n(-c2c(F)cc(Cl)c(OC)c2N)c1=O please
Result: 0

Task: Entry COc1c(Cl)cc(F)c(-n2c(=O)cc(C(F)(F)F)n(C)c2=O)c1NC(=O)C1CCCCC1 please
Result: 5

Task: Entry CCOC(=O)COc1c(Cl)cc(F)c(-n2c(=O)cc(C(F)(F)F)n(C)c2=O)c1N please
Result: 30

More entries:
Task: Report Pre-emerge crop damage CORN (phytotoxicity rating, scale 0-100) for Cn1c(C(F)(F)F)cc(=O)n(-c2c(F)cc(Cl)c(OC3CCCC3)c2N)c1=O please.
Result: 0

Task: Entry COc1c(Cl)cc(F)c(-n2c(=O)cc(C(F)(F)F)n(C)c2=O)c1N(C)C please
Result: 0

Task: Entry Cn1c(C(F)(F)F)cc(=O)n(-c2c(N)cc(OC(F)F)cc2F)c1=O please
Result: 0
